molecular target: UniProt P14174; experiment: MIF tautomerase assay using pHPP as substrate; assay type: biochemical; conditions: inhibition of the MIF enzyme in vitro; mean of multiple test results; read-out: Tautomerase Inhibition pIC50 (converted)
Sequence (P14174 2-115 limits assumed): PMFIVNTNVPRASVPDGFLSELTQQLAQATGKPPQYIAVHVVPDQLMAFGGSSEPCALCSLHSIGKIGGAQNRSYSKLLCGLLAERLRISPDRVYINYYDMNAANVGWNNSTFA
valueType: IC50

Worked examples follow.
>>> print(df.to_string())
                                   compound  valuetype    valueobserved
0  Cc1ccncc1-n1cnc2c(N)nc(N3CCN(c4ccc(O)cc4)CC3)nc21       IC50  1000 to 9770 nM
1  NC(=O)Cn1cnc2c(-n3ncc4ccccc43)nc(N3CCN(c4ccc(O)cc4)CC3)nc21       IC50    100 to 977 nM
2  Oc1ccc(N2CCN(c3nc(N4CCCC4)c4ncn(-c5cccnc5)c4n3)CC2)cc1       IC50  1000 to 9770 nM
3  NC(=O)Cn1cnc2c(N3CCc4ccccc43)nc(N3CCN(c4ccc(O)cc4)CC3)nc21       IC50  1000 to 9770 nM
4  O=C(O)Cn1cnc2c(-n3nc(-c4nnn[nH]4)c4ccccc43)nc(N3CCN(c4ccc(O)cc4)CC3)nc21       IC50    10 to 97.7 nM
5  O=C(O)CCCCn1cnc2c(-n3ncc4ccccc43)nc(N3CCN(c4ccc(O)cc4)CC3)nc21       IC50    10 to 97.7 nM

-- ask Given the compound Nc1nc(N2CCN(c3ccc(O)cc3)CC2)nc2c1ncn2-c1ccc(C(=O)O)cc1 , what is its reported IC50?
-- reply 1000 to 9770 nM

-- ask Given the compound O=C(O)Cn1cnc2c(N3Cc4ccccc4C3)nc(N3CCN(c4ccc(O)cc4)CC3)nc21 , what is its reported IC50?
-- reply 100 to 977 nM

-- ask Given the compound Nc1nc(N2CCC(O)(c3ccc(F)cc3)CC2)nc2c1ncn2-c1cccnc1 , what is its reported IC50?
-- reply 1000 to 9770 nM

-- ask Given the compound Nc1nc(N2CCC(n3cc(C(=O)O)cn3)CC2)nc2c1ncn2-c1ccncc1 , what is its reported IC50?
-- reply > 10000 nM

-- ask Given the compound O=C(O)Cn1cnc2c(N3N=CC4C=CC=CC43)nc(N3CCN(c4ccccc4)CC3)nc21 (centres unmarked) , what is its reported IC50?
-- reply 100 to 977 nM

-- ask Given the compound Nc1nc(N2CCN(c3ccc(O)cc3)CC2)nc2c1ncn2-c1ccc(Cl)cc1Cl , what is its reported IC50?
-- reply > 10000 nM

-- ask Given the compound O=C(O)Cn1cnc2nc(N3CCN(c4ccc(O)cc4)CC3)nc(-n3ncc4ccccc43)c21 , what is its reported IC50?
-- reply 100 to 977 nM

-- ask Given the compound Oc1ccc(N2CCN(c3nc(N4CCNCC4)c4ncn(-c5ccncc5)c4n3)CC2)cc1 , what is its reported IC50?
-- reply 100 to 977 nM

-- ask Given the compound Oc1ccc(N2CCN(c3nc(NCc4ccccc4)c4ncn(-c5cccnc5)c4n3)CC2)cc1 , what is its reported IC50?
-- reply 1000 to 9770 nM

-- ask Given the compound Cc1nc(N2CCN(c3ccc(O)cc3)CC2)nc2c1ncn2CCO , what is its reported IC50?
-- reply 1000 to 9770 nM

-- ask Given the compound CC1(C(=O)O)CCCN1c1nc(N2CCN(c3ccc(O)cc3)CC2)nc2c1ncn2-c1ccncc1 (centres unmarked) , what is its reported IC50?
-- reply 10 to 97.7 nM

-- ask Given the compound Nc1nc(N2CCN(c3ccc(O)cc3)CC2)nc2c1ncn2-c1ccccc1 , what is its reported IC50?
-- reply 1000 to 9770 nM

-- ask Given the compound Cc1nc(N2CCC(O)(c3ccc(O)cc3)CC2)nc2c1ncn2-c1ccc(C#N)cc1 , what is its reported IC50?
-- reply > 10000 nM

-- ask Given the compound COc1ccc2cnn(-c3nc(N4CCN(c5ccc(O)cc5)CC4)nc4c3ncn4CC(=O)O)c2c1 , what is its reported IC50?
-- reply 1000 to 9770 nM

-- ask Given the compound OCCCNc1nc(N2CCN(c3ccc(O)cc3)CC2)nc2c1ncn2-c1cccnc1 , what is its reported IC50?
-- reply 100 to 977 nM

-- ask Given the compound O=C(O)Cn1cnc2c(N3CCc4ccccc43)nc(N3CCN(c4ccc(O)cc4)CC3)nc21 , what is its reported IC50?
-- reply 100 to 977 nM

-- ask Given the compound Nc1nc(N2CCC(O)(c3ccc(O)cc3)CC2)nc2c1ncn2-c1cccnc1 , what is its reported IC50?
-- reply 100 to 977 nM

-- ask Given the compound O=C(O)Cn1cnc2c(-n3ncc4c(CO)cccc43)nc(N3CCN(c4ccc(O)cc4)CC3)nc21 , what is its reported IC50?
-- reply 10 to 97.7 nM

-- ask Given the compound Cc1cccc2c1nnn2-c1nc(N2CCN(c3ccc(O)cc3)CC2)nc2c1ncn2CC(=O)O , what is its reported IC50?
-- reply 10 to 97.7 nM

-- ask Given the compound COc1cc(-n2cnc3c(N)nc(N4CCN(c5ccc(O)cc5)CC4)nc32)ccn1 , what is its reported IC50?
-- reply 100 to 977 nM

-- ask Given the compound OCCn1cnc2c(-n3nc(CO)c4ccccc43)nc(N3CCN(c4ccc(O)cc4)CC3)nc21 , what is its reported IC50?
-- reply 10 to 97.7 nM

-- ask Given the compound O=C(O)CCn1cnc2c(-n3ncc4ccccc43)nc(N3CCN(c4ccc(O)cc4)CC3)nc21 , what is its reported IC50?
-- reply 10 to 97.7 nM

-- ask Given the compound Nc1nc(N2CCN(c3ccc(O)cc3)CC2)nc2c1ncn2-c1ccc(Cl)cc1 , what is its reported IC50?
-- reply > 10000 nM

-- ask Given the compound Nc1nc(N2CCN(c3ccc(O)cc3)CC2)nc2c1ncn2C1CCCCO1 (centres unmarked) , what is its reported IC50?
-- reply > 10000 nM

-- ask Given the compound OC[C@@H](COCc1ccccc1)Nc1nc(N2CCN(c3ccc(O)cc3)CC2)nc2c1ncn2-c1ccncc1 , what is its reported IC50?
-- reply 100 to 977 nM

-- ask Given the compound CC(=O)NCCn1cnc2c(-n3ncc4ccccc43)nc(N3CCN(c4ccc(O)cc4)CC3)nc21 , what is its reported IC50?
-- reply 100 to 977 nM
